These data points were gathered from PubChem BioAssay AID652062.

procedureDetails: HIV-1 AD8 envelope cell-cell fusion blockers – cherry-pick, dose response (AID 652062)
conditionInfo: HeLa-AD8 Env / CEM-CCR5 cell fusion, luciferase; at 35 µM (top of the series) unless noted
Out of some 1,400 compounds screened, about 1,100 (79%) were called active. The set was probably picked from earlier hits. Not all results are given here. Results with a measured potency or affinity are listed apart.
assayReadout: activity change, negative = inhibition (%)
The reply should be a number in %, with the unit left off.

compound | valueUnits | activity change, negative = inhibition
O=C(Nc1ccc(F)cc1)Nc1ccc2c(c1)[C@@H]1C[C@H](CC(=O)N3CCCCC3)O[C@H](CO)[C@@H]1O2 | % | -21.7

Query string: What value of activity change, negative = inhibition has been reported for the following compound? CN1CCN(C(=O)C[C@H]2C[C@@H]3c4cc(NS(C)(=O)=O)ccc4O[C@@H]3[C@H](CO)O2)CC1
Result string: -46

Query string: Please give the measured activity change, negative = inhibition for this compound: O=C(C[C@H]1C[C@@H]2c3cc(NC(=O)Nc4ccc(F)cc4)ccc3O[C@@H]2[C@@H](CO)O1)NCC1CC1
Result string: -36.8

Query string: # lookup: activity change, negative = inhibition of O=C(C[C@@H]1C[C@H]2c3cc(NC(=O)Nc4ccc(F)cc4)ccc3O[C@H]2[C@H](CO)O1)NCC1CC1
Result string: 49.9

Query string: Find the recorded activity change, negative = inhibition belonging to CCNC1CCC(Nc2ccnc3cc(Cl)ccc23)CC1 (stereo not drawn) and report it.
Result string: -25.4

Query string: Using the record for COc1cccc(S(=O)(=O)Nc2ccc3c(c2)[C@H]2C[C@H](CC(=O)NCc4ccc(Cl)cc4)O[C@@H](CO)[C@H]2O3)c1 , report its activity change, negative = inhibition.
Result string: 0.353

Query string: // query activity change, negative = inhibition value for entry CCN1CCN(S(=O)(=O)c2ccc(Cl)c(C(=O)Nc3ccccc3N3CCCC3)c2)CC1
Result string: 48.8

Query string: Which activity change, negative = inhibition value is on record for COc1ccc(-c2c(C)nn3c(C(F)(F)F)cc(C)nc23)cc1 ?
Result string: 123
